inhibition of growth at 0.4 ppm values, listed per item
test system: Cercospora beticola; assay: in vitro-Test with fungal microorganisms, Method B (tables C11-C20); type: cell-based; details: Cercospora beticola, single compound, 0.4 ppm; read-out: Efficacy %
State the answer as a number, implicitly in %.

Bench note: what inhibition of growth at 0.4 ppm did CO/N=C(/C1=NOCCO1)c1ccccc1Oc1ncnc(Oc2ccccc2Cl)c1F show?
100

Bench note: what inhibition of growth at 0.4 ppm did O=C1C2CC=CCC2C(=O)N1SC(Cl)(Cl)Cl (stereo not shown) show?
0

Bench note: what inhibition of growth at 0.4 ppm did CCN(C)C=Nc1cc(C)c(Oc2cccc(SC(F)(F)C(F)F)c2)cc1C show?
68

Bench note: what inhibition of growth at 0.4 ppm did Fc1ccc(Oc2ccnc3cc(Cl)cc(Cl)c23)cc1 show?
0
